Items are presented alongside their recorded normalised response.
- System: DU-4475
- protocol-notes: normalised response (% of control), CellTox Green; higher = less cell death (100 = DMSO, 0 = benzethonium chloride kill control)
- study-conditions: incubation time: 72 h
Numbers only; they are read as %.

Reference set (4 entries):
# compound, normalised response (%)
measured = [
    ("O=C1CN2Cc3c(ccc(Cl)c3Cl)N=C2N1 [Anagrelide] (100 nM)", 98.5),
    ("Cn1cc(C2=Nc3cc(NC(=O)C(N)C4CCCCC4)cc4c3C2=CNNC4=O)cn1 (stereo not given) (10000 nM)", 83.1),
    ("Cc1ccc([N+](=O)[O-])cc1S(=O)(=O)N(C)/N=C/c1cnc2ccc(Br)cn12 [PIK-75] (1000 nM)", 79),
    ("Nc1nc2[nH]cnc2c(=S)[nH]1 [Thioguanine] (100 nM)", 101),
]

Let us move to another entry and its normalised response.
Quick check: normalised response of C[C@]1(O)C[C@@H](c2nc(-c3ccc4ccc(-c5ccccc5)nc4c3)c3c(N)nccn32)C1 [Linsitinib] (10000 nM) ?
97.4

* * *

- Tested on: MDA-MB-453
- protocol-notes: normalised viability (% of control), CellTiter-Blue; higher = more viable cells (about 100 = DMSO control)
- study-conditions: incubation time: 72 h
Threshold-based label: normalised viability under 90% gives yes (1), normalised viability not under 90% gives no (0).

# compound, discrete-label
data = [
    ("O=P(O)(O)C(O)(Cn1ccnc1)P(=O)(O)O [Zoledronic acid] (300 nM)", "no (0)"),
]

Say whether its normalised viability is strictly beneath 90%. Entry: COc1cc2c(cc1O)CC[C@@H]1[C@@H]2CC[C@]2(C)[C@@H](O)CC[C@@H]12 [2-methoxyestradiol] (300 nM)
yes (1)

Say whether its normalised viability is strictly beneath 90%. Entry: O=NN(CCCl)C(=O)NCCCl [Carmustine] (300 nM)
no (0)

Say whether its normalised viability is strictly beneath 90%. Entry: O=C1CN2Cc3c(ccc(Cl)c3Cl)N=C2N1 [Anagrelide] (300 nM)
no (0)

Say whether its normalised viability is strictly beneath 90%. Entry: CC1(C)CNc2cc(NC(=O)c3cccnc3NCc3ccncc3)ccc21 [Motesanib] (300 nM)
yes (1)

Say whether its normalised viability is strictly beneath 90%. Entry: CC1=C2C[C@H]3[C@@H](CC=C4C[C@@H](O)CC[C@@]43C)[C@@H]2CC[C@]12O[C@@H]1C[C@H](C)CN[C@H]1[C@H]2C [Cyclopamine] (300 nM)
no (0)

Say whether its normalised viability is strictly beneath 90%. Entry: CC(=O)c1c(C)c2cnc(Nc3ccc(N4CCNCC4)cn3)nc2n(C2CCCC2)c1=O (300 nM)
yes (1)

* * *

Items are presented alongside their recorded drug sensitivity score.
- Tested on: MDA-MB-231
- protocol-notes: drug sensitivity score (DSS), CellTiter-Glo (DSS (AUC-based score)); higher = stronger drug effect (viability inhibition or cytotoxicity); extreme values may be limits of the assay
- study-conditions: incubation time: 72 h
Answer with a number only.

Reference set (2 entries):
# compound, drug sensitivity score
records = [
    ("O=C1CN2Cc3c(ccc(Cl)c3Cl)N=C2N1 [Anagrelide]", 0),
    ("CC1=C2C[C@H]3[C@@H](CC=C4C[C@@H](O)CC[C@@]43C)[C@@H]2CC[C@]12O[C@@H]1C[C@H](C)CN[C@H]1[C@H]2C", 0),
]

Quick check: drug sensitivity score of `Cn1cnc2c(F)c(Nc3ccc(Br)cc3Cl)c(C(=O)NOCCO)cc21` ?
5.56

Quick check: drug sensitivity score of `COc1cc2c(cc1O)CC[C@@H]1[C@@H]2CC[C@]2(C)[C@@H](O)CC[C@@H]12` ?
5.78

Quick check: drug sensitivity score of `Cc1ccc([N+](=O)[O-])cc1S(=O)(=O)N(C)/N=C/c1cnc2ccc(Br)cn12` ?
30.5

Quick check: drug sensitivity score of `CC1(C)CCC(CN2CCN(c3ccc(C(=O)NS(=O)(=O)c4ccc(NCC5CCOCC5)c([N+](=O)[O-])c4)c(Oc4cnc5[nH]ccc5c4)c3)CC2)=C(c2ccc(Cl)cc2)C1` ?
0
